Test system: Johnson Grass
testName: Preemergent activity
Format: in vivo
measurementContext: Sorghum halepense, pre-emergence; 0.14 kgs/hectare; read-out: Preemergence Control
pest or weed control at 140 g/ha values by entry
Supply the numeric figure in %, leaving out any unit text.

Completed entries (count: 5):
CC(Oc1ccc(Oc2ccc(Br)cc2F)cc1)C(=O)N(C)c1ccccc1 (stereo not drawn) : 0
CC(Oc1ccc(Oc2ccc(Br)cc2F)cc1)C(=O)O (stereo not drawn) [OH] : 60
C=CCOC(=O)C(C)Oc1ccc(Oc2ccc(Br)cc2F)cc1 (stereo not drawn) [OCH2 CCH2] : 0
CC(Oc1ccc(Oc2ccc(Br)cc2F)cc1)C(=O)OC1CCCC1 (stereo not drawn) : 0
C=CCNC(=O)C(C)Oc1ccc(Oc2ccc(Br)cc2F)cc1 (stereo not drawn) : 0

What value of pest or weed control at 140 g/ha has been reported for the following molecule? CCCCCCCCOC(=O)C(C)Oc1ccc(Oc2ccc(Br)cc2F)cc1 (stereo not drawn) [O(CH2)7 CH3] 0

====

Test system: Johnson Grass
testName: Preemergent activity
Type: in vivo
measurementContext: Sorghum halepense, pre-emergence; 0.28 kgs/hectare; read-out: Preemergence Control
observedProperty: pest or weed control at 280 g/ha (%)
Reply with just the number (in %).

Sample answers from the record:
CC(Oc1ccc(Oc2ccc(Br)cc2F)cc1)C(=O)OC1CCCC1 (stereo not shown) : 40
CCCCOC(=O)C(C)Oc1ccc(Oc2ccc(Br)cc2F)cc1 (stereo not shown) [O(CH2)3 CH3] : 65
COC(=O)[C@@H](C)Oc1ccc(Oc2ccc(Cl)cc2F)cc1 [4-Chloro-(R-Enantiomer)] : 80

Record lookup: for Johnson Grass, what pest or weed control at 280 g/ha belongs to COC(=O)C(C)Oc1ccc(Oc2ccc(I)cc2F)cc1 (stereo not shown) ? 60

Can you check COC(=O)C(C)Oc1ccc(Oc2ccc(C(F)(F)F)cc2F)cc1 (stereo not shown) next? 100

Next up: C=CCOC(=O)C(C)Oc1ccc(Oc2ccc(Br)cc2F)cc1 (stereo not shown) [OCH2 CCH2] 80

// repeat for COC(=O)C(C)Oc1ccc(Oc2ccc(Cl)cc2F)cc1 (racemic) [Example 4-Chloro-] and report 0

====

System: Barnyard Grass
testName: Preemergent activity
Assay type: in vivo
measurementContext: Echinochloa crus-galli, pre-emergence; 0.07 kgs/hectare; read-out: Preemergence Control
Recorded pest or weed control at 70 g/ha for the following molecules
Use % as the unit, but write only the number.

Worked examples, 3 molecules total:
CC(Oc1ccc(Oc2ccc(Br)cc2F)cc1)C(N)=O (stereo not shown) : 20
CCOCCOC(=O)C(C)Oc1ccc(Oc2ccc(Br)cc2F)cc1 (stereo not shown) : 0
C=CCOC(=O)C(C)Oc1ccc(Oc2ccc(Br)cc2F)cc1 (stereo not shown) : 95

Reported pest or weed control at 70 g/ha for CCCCOC(=O)C(C)Oc1ccc(Oc2ccc(Br)cc2F)cc1 (stereo not shown) : what is it? 0

====

Test system: Yellow Foxtail
testName: Preemergent activity
Assay type: in vivo
measurementContext: Setaria, pre-emergence; 0.28 kgs/hectare; read-out: Preemergence Control
Procedure: In a representative operation, 2-[4-(2-fluoro-4-trifluoromethylphenoxy)phenoxy]propionic acid methyl ester, to be utilized in a series of tests, is dissolved in acetone to one half of the final volume (twice the final concentration) to be used and the acetone solution in each case is admixed with an equal volume of water containing 0.1 percent by weight of Tween-20 surface active material (Tween-20 is a trademark of Atlas Chemical Company). […]
Listing: pest or weed control at 280 g/ha of selected molecules
Note: a bare number is incomplete; add the unit.

Example entries and their recorded answers appear below.
CC(Oc1ccc(Oc2ccc(Br)cc2F)cc1)C(=O)O (stereo not drawn) : 90%
C=CCOC(=O)C(C)Oc1ccc(Oc2ccc(Br)cc2F)cc1 (stereo not drawn) : 90%

// below: pest or weed control at 280 g/ha requested for another molecule
Could you share which pest or weed control at 280 g/ha value was measured for COC(=O)C(C)Oc1ccc(Oc2ccc(Cl)cc2F)cc1 (racemic) ? 90%

====

Reported pest or weed control at 140 g/ha values follow for various molecules
System: Johnson Grass
testName: Preemergent activity
Format: in vivo
measurementContext: Sorghum halepense, pre-emergence; 0.14 kgs/hectare; read-out: Preemergence Control
Numeric only. Scale: %

Consider the following illustrative entries.
COC(=O)C(C)Oc1ccc(Oc2ccc(I)cc2F)cc1 (stereo not drawn) : 0
CCOCCOC(=O)C(C)Oc1ccc(Oc2ccc(Br)cc2F)cc1 (stereo not drawn) : 0

Could you now look at the following molecule, please?
# input molecule: CC(Oc1ccc(Oc2ccc(Br)cc2F)cc1)C(=O)OCCN(C)C (stereo not drawn) ; wanted: its pest or weed control at 140 g/ha 0
